tested on: F380Y/beta4; assay: modulators of BK channel variants, profiling panel, selectivity assay, cell-based, U2OS BacMam, thallium flux, beta subunits (AID 1259406); conditions: at 30 µM;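 note: initial slope of Thallos dye fluorescence rise after thallium is added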
Calls of active or inactive are those of the source.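 Rule for the calls: active = thallium flux through the channel raised or lowered by more than 3 SD from vehicle-only wells, actives on both sides; inactive = the rest.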
Possible outcomes: active, inactive

{"Molecule": "CC(C)(S)C(N)C(=O)O (stereo unspecified)", "Label": "inactive"}
{"Molecule": "CC(=O)N(C(C)=O)c1ccc2c3c(cccc13)CC2", "Label": "inactive"}
{"Molecule": "O=C1N=C(O)CN1N=Cc1ccc(-c2ccc([N+](=O)[O-])cc2)o1", "Label": "inactive"}
{"Molecule": "CS(=O)(=O)Nc1ccc(N2CCN(c3ccc(C(F)(F)F)cn3)CC2)nc1", "Label": "inactive"}
{"Molecule": "CC(C)(C)c1ccc(Oc2ccc(NC(=O)Nc3cccs3)cn2)cc1", "Label": "inactive"}
{"Molecule": "O=C(NC1CCSC1)c1ccccc1NS(=O)(=O)c1ccccc1 (stereo unspecified)", "Label": "inactive"}
{"Molecule": "CN1[C@@H]2CCC[C@H]1CC(NC(=O)c1nn(C)c3ccccc13)C2 (stereo partly specified)", "Label": "inactive"}
{"Molecule": "COC(OC)c1ccc(C#N)c(SC)n1", "Label": "inactive"}
{"Molecule": "O=C(O)c1nnn(-c2ccccc2Oc2ccc(Cl)cc2Cl)c1-c1ccccc1", "Label": "active"}
{"Molecule": "COc1ccc2c(OC(C)=O)coc2c1", "Label": "inactive"}
{"Molecule": "C#Cc1cccc(NS(=O)(=O)c2ccc(Cl)c(Cl)c2)c1", "Label": "active"}
{"Molecule": "Cc1noc(C)c1C(=O)Sc1nccc(C(F)(F)F)n1", "Label": "inactive"}
{"Molecule": "Cn1cnc2cccc(F)c2c1=N", "Label": "inactive"}
{"Molecule": "O=C1c2ccccc2C(=O)N1CNc1ccc(Oc2ccc(Cl)cc2)cc1", "Label": "active"}
{"Molecule": "Clc1cc(Cl)cc(Nc2ncnc(-n3cccc3)n2)c1", "Label": "inactive"}
{"Molecule": "CN(C)CCc1c[nH]c2ccc(Cn3cncn3)cc12", "Label": "inactive"}
{"Molecule": "CC[C@H]1OC(=O)[C@H](C)[C@@H](O[C@H]2C[C@@](C)(OC)[C@@H](O)[C@H](C)O2)[C@H](C)[C@@H](O[C@@H]2O[C@H](C)C[C@H](N(C)C)[C@H]2O)[C@](C)(O)C[C@@H](C)CN(C)[C@H](C)[C@@H](O)[C@]1(C)O", "Label": "inactive"}
{"Molecule": "NC(CS(=O)(=O)Cc1ccco1)=NO", "Label": "inactive"}
{"Molecule": "CN1c2ccccc2C(C)(C)C12C=Cc1cc(Br)cc([N+](=O)[O-])c1O2 (stereo unspecified)", "Label": "inactive"}
{"Molecule": "COC(=O)c1cc(S(=O)(=O)N(Cc2ccc(OC)cc2)Cc2cccn2C)oc1C", "Label": "active"}
{"Molecule": "Cc1nc(C)c(C(=O)O)c(-c2ccsc2)c1C(=O)O", "Label": "inactive"}
{"Molecule": "CN(C)C=NC(=O)c1sc(S(C)(=O)=O)c2c1CCC=C2", "Label": "inactive"}
{"Molecule": "NCC(O)c1ccc(O)c(O)c1 (stereo unspecified)", "Label": "inactive"}
{"Molecule": "Cc1ccc(NC(=S)NCCO)cc1", "Label": "inactive"}
{"Molecule": "Cc1cc2c(NC(=O)c3ccccc3C(=O)O)cccc2nn1", "Label": "inactive"}
{"Molecule": "Cc1cnc(N)c(C)n1", "Label": "inactive"}
{"Molecule": "CCN(CC)CC#CCOC(=O)C(O)(c1ccccc1)C1CCCCC1 (stereo unspecified)", "Label": "inactive"}
{"Molecule": "Cc1cccc(N=Cc2cc(Cl)cc(Cl)c2O)c1C", "Label": "inactive"}
{"Molecule": "CC1c2cccc(O)c2C(O)=C2C(=O)[C@]3(O)C(O)=C(C(N)=O)C(=O)[C@@H](N(C)C)[C@@H]3C[C@@H]21 (stereo partly specified)", "Label": "inactive"}
{"Molecule": "Cc1cc2c(cc1C)CSC(c1ccco1)SC2", "Label": "inactive"}
{"Molecule": "O=C(O)CCSc1ccc2ccccc2c1", "Label": "inactive"}
{"Molecule": "CC(=O)OCC(=O)C1(O)C(C)CC2C3CCC4CC(=O)C=CC4(C)C3C(O)CC21C (stereo unspecified)", "Label": "inactive"}
{"Molecule": "NNC(=O)Cc1csc2nc(-c3ccccc3)nn12", "Label": "inactive"}
{"Molecule": "Clc1ccc(-c2nc(-c3cnccn3)no2)cc1", "Label": "inactive"}
{"Molecule": "NC(=O)c1ncn(C2OC(CO)C(O)C2O)n1 (stereo unspecified)", "Label": "inactive"}
{"Molecule": "CC(C)(C)NC(=O)[C@@H]1C[C@@H]2CCCC[C@@H]2CN1C[C@@H](O)[C@H](Cc1ccccc1)NC(=O)[C@H](CC(N)=O)NC(=O)c1ccc2ccccc2n1", "Label": "inactive"}
